- procedure text: NCI Yeast Anticancer Drug Screen. Data for the mlh1 rad18 strain (AID 175)
- protocol conditions: S. cerevisiae mlh1 rad18 strain growth inhibition; at 50.0 µM (retest, dose inferred, filed as 5.0); active compounds read high
Compounds without any hit were thinned out: in the full panel of roughly 79,000, 15% have a hit.
endpoint name: growth inhibition (%)
Write the number in % without appending the unit.

Here are 2 compounds together with their reported answers.
{"compound": "CN(C)C(=[Se])[Se]C(=[Se])N(C)C", "growth inhibition, %": 91}
{"compound": "CNC(=O)OCC1C2=C(C(=O)C(C)=C(N)C2=O)N2CC3C(N3C)C12OC (stereo not drawn)", "growth inhibition, %": 92}

Shifting focus to the compound that follows.
Exercise: For the compound CC(C)c1c(O)c(O)c2c(c1O)C(=O)C(O)=C1C(C)(C)CCC[C@@]12C , what growth inhibition is on record?
Solution: 89

====

- procedure text: NCI Yeast Anticancer Drug Screen. Data for the sgs1 mgt1 strain (AID 161);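 also: 0% = growth of cultures given vehicle only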
- protocol conditions: S. cerevisiae sgs1 mgt1 strain, at 50.0 µM
This is part of a sample that, as a whole, favours compounds with a hit. Of some 79,000 tested, about 15% had one in any assay. Activity calls are given as the source filed them. Rule as the data show it: active = growth inhibition above about 70%; inactive = the rest.
Please reply with one of these outcomes: active, inactive

{"compound": "CC1(C)CC(=O)C([Se]C2=C(O)CC(C)(C)CC2=O)=C(O)C1", "discrete label": "active"}
{"compound": "CCc1ccc([O-])c(C=NCCCN(C)CCCN=Cc2cc(C)ccc2[O-])c1.[Co+3].[N-]=[N+]=[N-]", "discrete label": "inactive"}
{"compound": "CCCOc1ccc(/C=C/[N+](=O)[O-])cc1", "discrete label": "inactive"}

Exercise: Name the outcome recorded for NC(Cc1c[nH]c2ccccc12)P(=O)(O)O (centres undefined) in the assay.
Solution: inactive

Exercise: // next record CCC1(OC(=O)CN)C(=O)OCc2c1cc1n(c2=O)Cc2cc3ccccc3nc2-1 (centres undefined)
Solution: active

Exercise: O=c1oc2ccccc2c(O)c1C1c2c(c3ccccc3oc2=O)Oc2c1c(=O)oc1ccccc21 , same question.
Solution: active

====

- procedure text: NCI Yeast Anticancer Drug Screen. Data for the rad18 strain (AID 177)
- protocol conditions: S. cerevisiae rad18 mutant growth inhibition; at 100.0 µM; active compounds read high
The panel holds about 79,000 compounds, 15% with a hit somewhere; the sample as a whole holds those more often.
Please enter Fulfilled where growth inhibition is greater than or equal to 90%, and Not fulfilled where it is lower.

Exercise: Has CC1=C(O)C(=O)C=C2C1=CC=C1[C@@]2(C)CCC2(C)[C@@H]3C[C@@H](C)C(=O)C[C@]3(C)CC[C@]12C (stereo partly drawn) a recorded growth inhibition greater than or equal to 90%?
Solution: Fulfilled

Exercise: Now consider C/C(=N\N=C(N)N)C(CN1CCOCC1)C(c1ccccc1)c1c(O)c2ccccc2oc1=O (stereo not drawn) .
Solution: Fulfilled

Exercise: Lookup Oc1cccc2nc3ccccc3nc12
Solution: Fulfilled

Exercise: Then this compound: CSc1ccccc1[As](C)C
Solution: Fulfilled

Exercise: Next up: OCC(O)C(O)CO (stereo not drawn) (tested in a mixture with another compound)
Solution: Not fulfilled

Exercise: Here is the next compound: CC(=O)O/C(=C1\C[C@H]2[C@@H]3CC=C4C[C@@H](OC(C)=O)CC[C@]4(C)[C@H]3CC[C@]2(C)C1=O)C(F)(F)F
Solution: Not fulfilled

Exercise: And for CCC1(O)C(=O)OCc2c1cc1n(c2=O)Cc2cc3cc(Cl)ccc3nc2-1 (stereo not drawn) ?
Solution: Not fulfilled

Exercise: Try COC(=O)C(F)C(Br)C(=O)OC (stereo not drawn) next.
Solution: Fulfilled

Exercise: Follow-up entry: COc1cccc2c1C(=O)c1c(O)c3c(c(O)c1C2=O)C[C@@](O)(/C(C)=N\O)C[C@@H]3OC1CC(N)C(O)C(C)O1 (stereo partly drawn)
Solution: Not fulfilled

Exercise: Next up: CC[C@@]1(O)C(=O)OCc2c1cc1n(c2=O)Cc2cc3c(NC(=O)CN)cccc3nc2-1
Solution: Not fulfilled

Exercise: Cool, now CC12CCC(C1)C(C)(C)C2OC(=O)c1ccccc1N (stereo not drawn)
Solution: Not fulfilled

Exercise: Note, next up: CNC(=O)ON(C(C)=O)C(=O)NC
Solution: Not fulfilled

Exercise: Queued: CC1CCCN(CCc2ccccc2)CC1 (stereo not drawn)
Solution: Not fulfilled

Exercise: Same read-out for O=C(/C=C(\c1ccccc1)N1CC1)c1ccccc1 ?
Solution: Fulfilled

Exercise: Now consider C[CH2][Sn]([CH2]C)([O]S(C)(=O)=O)[O]S(C)(=O)=O and answer again.
Solution: Not fulfilled

Exercise: // query: O=P(CCCCP(=O)(c1ccccc1)c1ccccc1)(c1ccccc1)c1ccccc1.[Cl][Sn]([Cl])([c]1ccccc1)[c]1ccccc1
Solution: Fulfilled

Exercise: Same question, Cc1c2ccccc2cc2ccccc12 this time
Solution: Fulfilled

Exercise: And O=c1c2ccccc2[se]n1-c1cccnc1 ?
Solution: Not fulfilled

Exercise: Please do the same for c1ccc2cc3n[se]nc3cc2c1 as well.
Solution: Fulfilled

Exercise: // next record BrCC[N+]12CC[N+](CCBr)(CC1)C2
Solution: Fulfilled

====

Each entry below lists one item and its recorded growth inhibition value.
- procedure text: NCI Yeast Anticancer Drug Screen. Data for the rad18 strain (AID 177)
- protocol conditions: S. cerevisiae rad18 mutant growth inhibition; at 3.7 µM; active compounds read high
About 79,000 compounds went through this panel and 15% of them were active in at least one assay; those are over-represented in the sample as a whole. Calls of active or inactive are those of the source. No stated cut-off is given here; in the data, active means growth inhibition above about 70%; inactive means the rest.

Recorded growth inhibition, per entry:
{"molecule": "Cc1ccc2c(c1)C1(C)c3cc(C)ccc3SP1S2 (stereo not drawn)", "value observed": "-3% (inactive)"}
{"molecule": "CN(C)CCC(C(=O)C(Br)Br)(c1ccccc1)c1ccccc1", "value observed": "11% (inactive)"}

Exercise: Could you tell me which growth inhibition is on file for CC[C@@]1(O)C(=O)OCc2c1cc1n(c2=O)Cc2cc3ccccc3nc2-1 ?
Solution: 20% (inactive)

====

- procedure text: NCI Yeast Anticancer Drug Screen. Data for the bub3 strain (AID 167)
- protocol conditions: S. cerevisiae bub3 mutant strain, at 50.0 µM (retest, dose inferred, filed as 5.0), active compounds read high
The panel holds about 79,000 compounds, 15% with a hit somewhere; the sample as a whole holds those more often. Active and inactive are the calls of the source. No stated cut-off is given here; in the data, active means growth inhibition above about 70%; inactive means the rest.
Reported growth inhibition values are given for each entry in this list.

Guide cases for growth inhibition, answers given:
{"compound": "COc1ccc(/C=C(/C)[N+](=O)[O-])cc1", "growth inhibition": "99% (active)"}
{"compound": "ClCCN(CCCl)c1ccc(C2N(Cc3ccc(Cl)cc3)CCCN2Cc2ccc(Cl)cc2)cc1", "growth inhibition": "35% (inactive)"}
{"compound": "Cc1ccc(N=P(c2ccccc2)(c2ccccc2)c2ccccc2)cc1.[I][Hg][I]", "growth inhibition": "98% (active)"}
{"compound": "c1ccc2c(c1)CCc1c-2[nH]c2ccccc12", "growth inhibition": "87% (active)"}
{"compound": "COC(=O)C1=C(C(=O)OC)[C]([Hg][CH3])(C(C)=O)N=N1 (configuration not stated)", "growth inhibition": "98% (active)"}
{"compound": "CC(C)[O-].CC(C)[O-].[O-]c1cccc2cccnc12.[O-]c1cccc2cccnc12.[Ti+4]", "growth inhibition": "-3% (inactive)"}
{"compound": "O=[N+]([O-])c1ccc(C=Cc2ccccc2)cc1.[C-]#[O+].[C-]#[O+].[C-]#[O+].[Cr]", "growth inhibition": "91% (active)"}
{"compound": "CC1=C(N2CC2)C(=O)c2ccccc2C1=O", "growth inhibition": "16% (inactive)"}
{"compound": "Cc1ccc2c(c1N)C(=O)c1ccccc1C2=O", "growth inhibition": "62% (inactive)"}
{"compound": "Cc1ccc(C(=O)CCl)o1", "growth inhibition": "98% (active)"}

Exercise: Endpoint output: growth inhibition of CC[C@@]1(O)C(=O)OCc2c1cc1n(c2=O)Cc2cc3ccccc3nc2-1 . Value?
Solution: 90% (active)

Exercise: Also check Nc1ccccc1C(=O)OCCc1ccccc1
Solution: 78% (active)

Exercise: # iterate: OC(c1cc2c(c3ccccc13)CCCC2)C1CCCCN1 (configuration not stated)
Solution: 18% (inactive)

Exercise: Now consider O=C(O)CN(CCN(CC(=O)O)CC(=O)O)CC(=O)O and answer again.
Solution: 66% (inactive)

Exercise: Queued: CN(CCC(N)CC(=O)NC1C=CC(n2ccc(N)nc2=O)OC1C(=O)O)C(=N)N (configuration not stated)
Solution: 96% (active)

Exercise: Also CC#C[P+](c1ccccc1)(c1ccccc1)c1ccccc1 , if possible.
Solution: 86% (active)

Exercise: What would you report for ClC1=NSSC1(Cl)Cl ?
Solution: 99% (active)

Exercise: Continue with O=c1[nH]cnc2[nH]cc(CN3CCCCC3)c12
Solution: -1% (inactive)

Exercise: Try this compound too: CC[C@@]1(O)C(=O)OCc2c1cc1n(c2=O)Cc2cc3c(NC(=O)CN)cccc3nc2-1
Solution: -3% (inactive)

Exercise: Now the compound CCC/C=[CH]/[Hg][Cl]
Solution: 99% (active)

Exercise: Can you handle CCCCCNC(=O)c1c(O)[nH]c(=S)[nH]c1=O next?
Solution: 94% (active)

Exercise: Likewise for CC1=CC2OC3CC4OC(=O)/C=C/C=C/C(=O)OCCC(C)C(O)C(=O)OCC2(CC1O)C4(C)C31CO1 (configuration not stated) ?
Solution: 98% (active)

Exercise: # iterate: N#CC(C#N)=Cc1cccc([N+](=O)[O-])c1
Solution: 76% (active)

Exercise: Now try CC(C)COP(=O)(O)OCC(C)C.[Al] .
Solution: 31% (inactive)

Exercise: Would you kindly repeat that for CC1([CH2][Hg][I])CS(=O)(=O)CC(C)([CH2][Hg][I])O1 (configuration not stated) ?
Solution: 99% (active)

Exercise: // same read-out, input: COc1ccc2c3c(c4cc(OC)c(OC)cc4c2c1)C[C@H]1CCCCN1C3
Solution: 99% (active)

Exercise: Quick one: CC(C)c1cccc(C(C)C)c1NC(=O)C(=O)CC(=O)CC(c1ccccc1)c1c(O)c2ccccc2oc1=O (configuration not stated)
Solution: -1% (inactive)

Exercise: Then this compound: COc1c(NC(=O)CC(C)=O)[c]([Hg][O]C(C)=O)c(OC)c(Cl)[c]1[Hg][O]C(C)=O
Solution: 97% (active)

Exercise: Also need Nc1ccc(Cl)cc1C(=O)c1ccccc1Cl , thanks.
Solution: 99% (active)

Exercise: Next up: [Cl][Pt+2][Cl].[NH-]C1CCCC2CCC[N-]C12 (configuration not stated)
Solution: 84% (active)

Exercise: Field entry: NC(C(=O)O)c1ccccc1Cl (configuration not stated)
Solution: -69% (inactive)

Exercise: Note, next up: CC(C)NCC(O)c1ccccc1Cl (configuration not stated)
Solution: -4% (inactive)

Entry source: PubChem BioAssay (NCI)
